Consider the following sequences; for each one, report its pKd.
- measuredOn: HLA-B*53:01
- assayOverview: IEDB peptide-MHC binding, purified MHC/competitive/radioactivity; filed as Kd, often an IC50 or EC50 that approximates it; bounds were set here for any values at or beyond the usual limits of such assays
- experimentalContext: source organism: Vaccinia virus WR
In textbook form, pKd equals minus log to base ten of the concentration in mol/L.

*Q* Recorded pKd of HPRHYATVM , please.
*A* 5.51

*Q* Now try RPMSLRSTII .
*A* 5.91

----------
- measuredOn: HLA-A*68:01
- assayOverview: IEDB peptide-MHC binding, purified MHC/competitive/radioactivity; bounds were set here for any values at or beyond the usual limits of such assays
- experimentalContext: source organism: Vaccinia virus WR
Answer each item with its documented pIC50.
Conceptually, pIC50 converts a concentration in mol/L into minus its log10.

*Q* Need pIC50, item KVMFVIRFK
*A* 7.52

*Q* Then this sequence: AVFKDSFLRK
*A* 7.33

*Q* Next sequence: VTSSGAIYK
*A* 7.62

*Q* Now this one: KTKNFTIDFK
*A* 6.84

*Q* Proceed to NQVKFYFNK
*A* 8.24

*Q* Another sequence: IVFNLPVSK
*A* 8.27

----------
- measuredOn: HLA-B*18:01
- assayOverview: IEDB peptide-MHC binding, purified MHC/competitive/radioactivity; filed as Kd, often an IC50 or EC50 that approximates it; bounds were set here for any values at or beyond the usual limits of such assays
- experimentalContext: source organism: Vaccinia virus WR
observable: Kd (nM)
Write the value in nM as a bare number.

*Q* Param readout= Kd; system= HLA-B*18:01; entry= TEYDDHINL ; returns value.
*A* 645

----------
- measuredOn: HLA-A*01:01
- assayOverview: IEDB peptide-MHC binding, purified MHC/competitive/radioactivity; bounds were set here for any values at or beyond the usual limits of such assays
- experimentalContext: source organism: Vaccinia virus WR
observable: IC50 (nM)
Answer in nM, number only, no unit symbol.

*Q* Given the sequence QSITRSLIY , what is its reported IC50?
*A* 74

*Q* Continue with FLSMLNLTKY
*A* 267

*Q* Same read-out for FTIDFKLKY ?
*A* 60

*Q* Next up: FGDSKEPVPY
*A* 137

*Q* Consider next the sequence VTDTNKFDNY in the same way.
*A* 1.6

*Q* Could you do the same for VSVNNVCHMY , please?
*A* 130

*Q* Field entry: DMCDIYLLY
*A* 28

*Q* Could you do the same for QSDTVFDYY , please?
*A* 1

----------
- measuredOn: HLA-A*33:01
- assayOverview: IEDB peptide-MHC binding, purified MHC/competitive/radioactivity; bounds were set here for any values at or beyond the usual limits of such assays
- experimentalContext: source organism: Vaccinia virus WR
observable: IC50

*Q* Tell me reported IC50 for YLLVKWYRK , tested with HLA-A*33:01.
*A* 0.114 µM

----------
Hi there, I'd appreciate the recorded pKd for every entry that follows.
- measuredOn: HLA-B*45:01
- assayOverview: IEDB peptide-MHC binding, purified MHC/competitive/radioactivity; filed as Kd, often an IC50 or EC50 that approximates it; bounds were set here for any values at or beyond the usual limits of such assays
- experimentalContext: source organism: Vaccinia virus WR
Scale note: pKd = -log10(concentration in M).

*Q* Hello, I am looking for reported pKd with HLA-B*45:01 for TEYDDHINL . Could you help?
*A* 5.11

*Q* How about this sequence: DELVDPINY
*A* 4.91

----------
- measuredOn: HLA-A*11:01
- assayOverview: IEDB peptide-MHC binding, purified MHC/competitive/radioactivity; bounds were set here for any values at or beyond the usual limits of such assays
- experimentalContext: source organism: Vaccinia virus WR
Rule: measured IC50 below 5 nM gets condition met; anything equal to or greater than 5 nM gets condition not met.

*Q* Is the reported IC50 for GTIAGGVCYY strictly below 5 nM?
*A* condition met

*Q* // next record NQVKFYFNK
*A* condition met

*Q* Try this sequence next: KVMFVIRFK
*A* condition not met

*Q* Param item: YLLVKWYRK
*A* condition met

*Q* Consider next the sequence ATSLDVINY in the same way.
*A* condition not met

*Q* Entry to check: KVLHVTDTNK
*A* condition not met

*Q* Also need AVFKDSFLRK , thanks.
*A* condition not met

*Q* One more sequence: KLKIISNDYK
*A* condition not met

*Q* // query: KTKNFTIDFK
*A* condition not met

*Q* Next sequence up: IVFNLPVSK
*A* condition met

*Q* Field entry: VTSSGAIYK
*A* condition met

----------
- measuredOn: HLA-A*33:01
- assayOverview: IEDB peptide-MHC binding, purified MHC/competitive/radioactivity; filed as Kd, often an IC50 or EC50 that approximates it; bounds were set here for any values at or beyond the usual limits of such assays
- experimentalContext: source organism: Vaccinia virus WR
observable: Kd

*Q* Recorded Kd for GTIAGGVCYY , please?
*A* ≥ 38.6 µM

*Q* Proceed to KVLHVTDTNK
*A* ≥ 50 µM

*Q* Can you check AVKDVTITKK next?
*A* ≥ 50 µM

*Q* Okay, and KTKNFTIDFK ?
*A* ≥ 40.4 µM

*Q* Request: AVFKDSFLRK
*A* ≥ 42.4 µM

*Q* // same read-out, input: IVFNLPVSK
*A* 3.17 µM

*Q* Field entry: VTSSGAIYK
*A* ≥ 21.4 µM

*Q* And what about the sequence NQVKFYFNK ?
*A* 0.822 µM

*Q* Ok, now KLKIISNDYK
*A* ≥ 50 µM

*Q* Ok, now KVMFVIRFK
*A* 0.857 µM

*Q* Now consider ATSLDVINY .
*A* ≥ 50 µM

----------
- measuredOn: HLA-A*31:01
- assayOverview: IEDB peptide-MHC binding, purified MHC/competitive/radioactivity; bounds were set here for any values at or beyond the usual limits of such assays
- experimentalContext: source organism: Vaccinia virus WR
observable: IC50 (nM)
Just the number in nM, nothing appended.

*Q* // lookup IC50 for NQVKFYFNK
*A* 15

*Q* Next up: KLKIISNDYK
*A* 137

*Q* And then YLLVKWYRK , what is it?
*A* 45

*Q* Lookup KVLHVTDTNK
*A* 466

*Q* Try the sequence KTKNFTIDFK
*A* 14

*Q* Check KVMFVIRFK too.
*A* 4.9

*Q* Similarly, IVFNLPVSK ?
*A* 23

----------
- measuredOn: HLA-A*29:02
- assayOverview: IEDB peptide-MHC binding, purified MHC/competitive/radioactivity; bounds were set here for any values at or beyond the usual limits of such assays
- experimentalContext: source organism: Vaccinia virus WR
Could you please mark 1 (yes) for values of IC50 below 90 nM and 0 (no) for values at or above it?

*Q* Answer whether the sequence FLSMLNLTKY has IC50 strictly less than 90 nM
*A* 0 (no)

*Q* Next entry: VWINNSWKF
*A* 1 (yes)

*Q* Proceed to FTIDFKLKY
*A* 1 (yes)

*Q* Next entry: QSITRSLIY
*A* 0 (no)

----------
- measuredOn: HLA-A*68:02
- assayOverview: IEDB peptide-MHC binding, purified MHC/competitive/radioactivity; bounds were set here for any values at or beyond the usual limits of such assays
- experimentalContext: source organism: Vaccinia virus WR
Record form. Attribute: IC50. Fill in for each entry.
Value expressed in nM; do not type the unit.

*Q* Could you share which IC50 value was measured for FLTSVINRV ?
*A* 0.42

*Q* Lookup NLFDIPLLTV
*A* 8.1

*Q* Thanks! And FLNISWFYI ?
*A* 240

----------
- measuredOn: HLA-B*54:01
- assayOverview: IEDB peptide-MHC binding, purified MHC/competitive/radioactivity; filed as Kd, often an IC50 or EC50 that approximates it; bounds were set here for any values at or beyond the usual limits of such assays
- experimentalContext: source organism: Vaccinia virus WR
observable: pKd
Note on units: pKd is unitless, being -log10 of a concentration expressed in mol/L.

*Q* What value of pKd on HLA-B*54:01 does HPRHYATVM have?
*A* 5.36

*Q* Input KPKPAVRFAI
*A* 6.17

----------
Provide the reported IC50 of each item.
- measuredOn: HLA-A*02:06
- assayOverview: IEDB peptide-MHC binding, purified MHC/competitive/radioactivity; bounds were set here for any values at or beyond the usual limits of such assays
- experimentalContext: source organism: Vaccinia virus WR
Give the value in nM but do not write nM after it.

*Q* Please report the recorded IC50 for ILDDNLYKV .
*A* 8.9

*Q* Cool, now FLTSVINRV
*A* 4.8

*Q* Same for NLFDIPLLTV
*A* 1.5

*Q* For GLNDYLHSV then?
*A* 3.9

*Q* Please give the result for FLNISWFYI too.
*A* 1
